Target: Type-1 angiotensin II receptor (Oryctolagus cuniculus)
Sequence (P34976 whole entry): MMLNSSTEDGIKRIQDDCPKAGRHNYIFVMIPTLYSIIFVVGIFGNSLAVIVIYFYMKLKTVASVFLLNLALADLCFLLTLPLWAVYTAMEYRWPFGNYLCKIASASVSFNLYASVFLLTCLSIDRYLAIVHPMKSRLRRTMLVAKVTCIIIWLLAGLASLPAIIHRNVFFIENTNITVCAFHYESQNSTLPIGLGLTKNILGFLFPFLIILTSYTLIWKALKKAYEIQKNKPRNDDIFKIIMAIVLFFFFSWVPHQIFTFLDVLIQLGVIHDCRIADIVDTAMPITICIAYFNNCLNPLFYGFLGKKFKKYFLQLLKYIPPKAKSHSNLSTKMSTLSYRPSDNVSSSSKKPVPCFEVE
pIC50: −log10 of the molar value.
Test Readout: pIC50

CCCCc1nn(-c2ccccc2C(F)(F)F)c(=O)n1Cc1ccc(-c2ccccc2S(=O)(=O)NC(=O)c2sccc2Br)cc1 : 9.14

(a) CCCCc1nn(-c2ccccc2C(F)(F)F)c(=O)n1Cc1ccc(-c2ccccc2S(=O)(=O)NS(=O)(=O)C(C)C)cc1
(b) CCCCc1nn(-c2ccccc2C(F)(F)F)c(=O)n1Cc1ccc(-c2ccccc2S(=O)(=O)NC(=O)C(F)(F)F)cc1
(c) CCCCc1nn(-c2ccccc2C(F)(F)F)c(=O)n1Cc1ccc(-c2ccccc2S(=O)(=O)NC(=O)OCC(C)C)cc1
Sort by pIC50, descending. The response must list the labels following the requested ordering.
a, c, b
